- assaySystem: T1, human tissue factor pathway inhibitor (TFPI) (human, UniProt P10646 29-304, limits assumed)
- T1 construct: bought; also called hTFPI; human TFPI
- T1 sequence (looked up): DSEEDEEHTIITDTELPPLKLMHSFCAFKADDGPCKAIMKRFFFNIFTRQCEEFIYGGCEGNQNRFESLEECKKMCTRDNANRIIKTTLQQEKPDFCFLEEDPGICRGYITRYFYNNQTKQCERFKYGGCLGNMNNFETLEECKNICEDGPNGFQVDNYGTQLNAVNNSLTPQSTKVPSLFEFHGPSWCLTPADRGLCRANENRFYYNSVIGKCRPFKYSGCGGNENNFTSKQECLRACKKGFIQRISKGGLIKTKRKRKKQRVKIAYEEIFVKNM
- protocolNotes: SPR, TFPI immobilized
measurementName: koff (s⁻¹)
The answer is to be given in s⁻¹; state only the numeric part.

Take a look at these entries with their results.
>>> reportedvalue("2A8-216 (HC S31V+I51D+S55R+K99V/LC Y48F+D91L+V96W) (Fab, V domains shown) VH: QVQLVESGGGLVQPGGSLRLSCAASGFTFRVYGMSWVRQAPGKGLEWVSSDRGSRSSTYYADSVKGRFTISRDNSKNTLYLQMNSLRAEDTAVYYCARVYRYWFDYWGQGTLVTVSS VL: DIELTQPPSVSVAPGQTARISCSGDNLRNYYAHWYQQKPGQAPVVVIFYDNNRPSGIPERFSGSNSGNTATLTISGTQAEDEADYYCQSWLDGVPWFGGGTKLTVLG")
0.000154
>>> reportedvalue("2A8-200 (HC S35D+S55R+K99L/LC Y48F+N51V+D91W) (Fab, V domains shown) VH: QVQLVESGGGLVQPGGSLRLSCAASGFTFRSYGMDWVRQAPGKGLEWVSSIRGSRSSTYYADSVKGRFTISRDNSKNTLYLQMNSLRAEDTAVYYCARLYRYWFDYWGQGTLVTVSS VL: DIELTQPPSVSVAPGQTARISCSGDNLRNYYAHWYQQKPGQAPVVVIFYDVNRPSGIPERFSGSNSGNTATLTISGTQAEDEADYYCQSWWDGVPVFGGGTKLTVLG")
"9.88e-05"
>>> reportedvalue("2A8-143 (HC S35D+S55R+K99L/LC Y48F+N51V+D91L+V96W) (Fab, V domains shown) VH: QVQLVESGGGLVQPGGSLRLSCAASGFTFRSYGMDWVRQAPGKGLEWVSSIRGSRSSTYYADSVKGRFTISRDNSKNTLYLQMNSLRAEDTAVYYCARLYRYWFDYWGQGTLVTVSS VL: DIELTQPPSVSVAPGQTARISCSGDNLRNYYAHWYQQKPGQAPVVVIFYDVNRPSGIPERFSGSNSGNTATLTISGTQAEDEADYYCQSWLDGVPWFGGGTKLTVLG")
0.000105

Query binder follows.
State its koff for this binder: 2A8-127 (HC S35D+K99L/LC Y48F+N51V+G56D+V96W) (Fab, V domains shown) VH: QVQLVESGGGLVQPGGSLRLSCAASGFTFRSYGMDWVRQAPGKGLEWVSSIRGSSSSTYYADSVKGRFTISRDNSKNTLYLQMNSLRAEDTAVYYCARLYRYWFDYWGQGTLVTVSS VL: DIELTQPPSVSVAPGQTARISCSGDNLRNYYAHWYQQKPGQAPVVVIFYDVNRPSDIPERFSGSNSGNTATLTISGTQAEDEADYYCQSWDDGVPWFGGGTKLTVLG
0.000141
